Cited source for all entries: patent US20240246981A1

Molecular target: QPCTL (Homo sapiens (Human))
Sequence (Q9NXS2 whole entry): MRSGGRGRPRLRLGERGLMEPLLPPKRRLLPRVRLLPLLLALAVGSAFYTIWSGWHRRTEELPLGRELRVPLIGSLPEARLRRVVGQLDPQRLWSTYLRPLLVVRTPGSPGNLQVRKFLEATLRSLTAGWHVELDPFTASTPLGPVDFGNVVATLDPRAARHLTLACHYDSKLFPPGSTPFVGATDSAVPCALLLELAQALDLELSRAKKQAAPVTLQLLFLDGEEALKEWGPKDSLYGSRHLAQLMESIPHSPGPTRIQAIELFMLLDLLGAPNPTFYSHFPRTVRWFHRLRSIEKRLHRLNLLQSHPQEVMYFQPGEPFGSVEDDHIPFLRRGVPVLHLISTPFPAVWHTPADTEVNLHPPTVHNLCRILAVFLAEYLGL
Assay: Assay A: biochemical QPCTL activity assay (MALDI-TOF MS)
Conditions: compounds of the invention, Table 2; read-out: Inhibition of QPCTL: IC50
pIC50: −log10 of the molar value.
measuredQuantity: pIC50

Example results:
Task: I am curious: what pIC50 value has been reported for "Cn1cnnc1C1CCN(c2c(C#N)cccc2-c2ccc(Cl)nc2)CC1" ?
Result: 7.25

Task: // lookup pIC50 for "Cc1cc(-c2cccc(C#N)c2N2CCC(c3nncn3C)CC2)cnc1F"
Result: 8.52

[I] Cn1cnnc1C1(F)CCN(c2c(C#N)cccc2-c2cnc3nn(C(C)(C)C(F)(F)F)cc3c2)CC1
[II] COc1cncc(-c2cccc(C#N)c2N2CCC(c3nncn3C)CC2)c1
[III] Cn1cnnc1C1CCN(c2c(C#N)cccc2-c2cnn3nc(-c4cccc(Cl)c4)ccc23)CC1
[IV] Cn1cnnc1C1CCN(c2c(C#N)cccc2-c2cnc(F)c(F)c2)CC1
Task: Order the records, beginning with the lowest pIC50 and ending with the highest. # the answer lists labels in the order requested
Result: II, IV, I, III
(II: 7.66, IV: 8.30, I: 8.70, III: 9.00)
